Across several studies, molecules have been characterized by their IC50 on IRAK1 (Homo sapiens); a selection follows.

Measured IC50, Cn1cc(-c2cccc(-c3ncc(-c4ccn(C)n4)c(NC[C@H]4CCNC4)n3)c2)cn1 : 1000 to 5000 nM

Data point: Cc1nnc(-c2cnc(-c3cccc(-c4cnn(C)c4)c3)nc2NCCN2CCS(=O)(=O)CC2)s1 ; IC50 = > 5000 nM

response.value for Cn1cc(-c2cccc(-c3ncc(-c4cnn(C)c4)c(NCC4(F)CCN(S(C)(=O)=O)CC4)n3)c2)cn1 (field: IC50) = 1000 to 5000 nM

Lab book: IC50 of C=CC(=O)N1CCC[C@H](C(=O)Nc2ccc(-c3ncc(-c4cccc(-c5ccn[nH]5)n4)o3)nc2)C1 noted as 5.35 nM

Documented IC50 of Cn1cc(-c2cccc(-c3ncc(-c4cnn(C)c4)c(NCCC(C)(C)O)n3)c2)cn1 : 100 to 1000 nM

Sure, the documented IC50 for Cn1cc(-c2cccc(-c3ncc(-c4cnn(C)c4)c(NCCN4CCC(O)CC4)n3)c2)cn1 is > 5000 nM

GET /value?item= Cn1cc(-c2cccc(-c3ncc(-c4ccn(C)n4)c(N[C@H]4CC[C@H](O)CC4)n3)c2)cn1 &field=IC50 returns > 5000 nM

The measured IC50 associated with Cn1cc(-c2cccc(-c3ncc(-c4cnn(C)c4)c(NC[C@H]4CC[C@H](O)C4)n3)c2)cn1 (racemic) reads 100 to 1000 nM

GET /value?item= C=CC(=O)N1CCC[C@H](c2nc(-c3ccc(NC(=O)c4cccc(-c5ccn[nH]5)n4)nc3)no2)C1 &field=IC50 returns 19.8 nM

Note to self: IC50 recorded for c1cc(NC2CCNC2)nc(-c2cnc3ccc(-c4cn[nH]c4)nn23)c1 (stereo not drawn) was 114 nM

Query C=CC(=O)N1CC(c2nc(-c3ccc(NC(=O)c4cccc(-c5[nH]ncc5C)n4)c(F)c3)no2)CC(F)(F)C1 (stereo not drawn) yields IC50 of 8.3 nM

Sample Cn1cc(-c2cccc(-c3ncc(-c4ccn(C)n4)c(NCC4CCCNC4)n3)c2)cn1 (stereo not drawn) ; IC50 observed: 100 to 1000 nM

The molecule Cn1cc(-c2cccc(-c3ncc(-c4cnn(C)c4)c(N[C@H]4CCC(=O)NC4)n3)c2)cn1 showed IC50 equal to 1000 to 5000 nM

Recorded IC50 (molecule Cn1cc(-c2cccc(-c3ncc(-c4cnn(C)c4)c(NCC4CCN(S(C)(=O)=O)CC4F)n3)c2)cn1 (stereo not drawn) ): 1000 to 5000 nM

Summary for this molecule, C=CC(=O)N[C@@H]1CCC[C@H](C(=O)Nc2ccc(NC(=O)c3cccc(-c4ccn[nH]4)n3)nc2)C1 : IC50 is 257 nM

====

Several publications report IC50 on IRAK1 (Homo sapiens, UniProt P51617); those values are gathered here.
Sequence (P51617 whole entry): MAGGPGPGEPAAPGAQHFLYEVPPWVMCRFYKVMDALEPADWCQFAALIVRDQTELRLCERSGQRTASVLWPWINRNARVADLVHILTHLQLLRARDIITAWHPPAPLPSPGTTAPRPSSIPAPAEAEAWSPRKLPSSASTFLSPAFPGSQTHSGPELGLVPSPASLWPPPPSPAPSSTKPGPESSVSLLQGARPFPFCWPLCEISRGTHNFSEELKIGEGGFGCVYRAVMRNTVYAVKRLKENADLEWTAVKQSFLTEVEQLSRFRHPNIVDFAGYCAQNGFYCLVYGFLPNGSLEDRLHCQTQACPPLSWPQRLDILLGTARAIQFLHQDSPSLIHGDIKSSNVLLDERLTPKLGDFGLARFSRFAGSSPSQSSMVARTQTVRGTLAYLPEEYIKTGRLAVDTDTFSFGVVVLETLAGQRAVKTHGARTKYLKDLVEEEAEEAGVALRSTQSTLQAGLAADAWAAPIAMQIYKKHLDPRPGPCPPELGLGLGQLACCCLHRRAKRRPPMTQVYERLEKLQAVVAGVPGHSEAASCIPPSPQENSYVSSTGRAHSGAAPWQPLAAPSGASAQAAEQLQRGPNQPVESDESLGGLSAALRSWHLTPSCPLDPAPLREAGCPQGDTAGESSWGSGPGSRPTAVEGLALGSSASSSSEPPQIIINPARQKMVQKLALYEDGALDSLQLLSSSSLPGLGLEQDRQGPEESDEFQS

Test item Cn1cc(-c2cccc(-c3ncc(-c4cnn(C)c4)c(NCC4(F)CCNCC4)n3)c2)cn1 ; IRAK1 (Homo sapiens, UniProt P51617); reported IC50 was > 5000 nM

Field IC50 (IRAK1 (Homo sapiens, UniProt P51617)), entry Cc1cccc2nc(-c3cc(-c4cnn(C5CCNCC5)c4)cnc3N)[nH]c12 : 100 to 10000 nM

Kindly note: IRAK1 (Homo sapiens, UniProt P51617), Cn1cc(-c2cccc(-c3ncc(-c4cnn(C)c4)c(NC45CCC(NS(C)(=O)=O)(CC4)CC5)n3)c2)cn1 , IC50 value reported: < 100 nM

Fill in: IRAK1 (Homo sapiens, UniProt P51617) IC50 for CC(C)Nc1nc(-c2cccc(-c3cnn(C)c3)c2)ncc1-c1cnn(C)c1 = 100 to 1000 nM

GET /values?item= C=CC(=O)N[C@H]1C[C@@H](C(=O)Nc2ccc(NC(=O)c3cccc(-c4ccn[nH]4)n3)nc2)CN(C)C1 &system= IRAK1 (Homo sapiens, UniProt P51617) returns IC50: 18.5 nM

# value of IC50, IRAK1 (Homo sapiens, UniProt P51617), item Cn1cc(-c2cccc(-c3ncc(-c4cnn(C)c4)c(NCC4CCCC4NS(C)(=O)=O)n3)c2)cn1 (stereo not shown) = 1000 to 5000 nM

Readout IC50 for CCc1c[nH]c(=O)c2cc3ccnc(OC[C@@H]4CCC(=O)N4)c3cc12 , test system IRAK1 (Homo sapiens, UniProt P51617), was 7230 nM

The measured IC50 that Cn1cc(-c2cccc(-c3ncc(-c4ccn(C)n4)c(NCC4CCNCC4)n3)c2)cn1 showed for IRAK1 (Homo sapiens, UniProt P51617) is > 5000 nM

Per the reported IRAK1 (Homo sapiens, UniProt P51617) data, Cn1cc(-c2cccc(-c3ncc(-c4cnn(C)c4)c(NCC4(O)CCN(S(C)(=O)=O)CC4)n3)c2)cn1 has IC50 of 1000 to 5000 nM

Query C=CC(=O)N1CCC[C@H](c2nc(-c3ccc(NC(=O)c4cccc(-c5ccnn5CC5(C(F)(F)F)CC5)n4)nc3)no2)C1 on IRAK1 (Homo sapiens, UniProt P51617); IC50 returned: > 10000 nM

The value of IC50 recorded for Cn1cc(-c2cccc(-c3ncc(-c4cnn(C)c4)c(N4CCCC(CO)C4)n3)c2)cn1 (stereo not shown) when tested on IRAK1 (Homo sapiens, UniProt P51617) reads 100 to 1000 nM

Observed IC50, IRAK1 (Homo sapiens, UniProt P51617), Cn1cc(-c2cccc(-c3ncc(-c4cnn(C)c4)c(NCCCN4CCCC4=O)n3)c2)cn1 : > 5000 nM

Item Cn1cc(-c2cccc(-c3ncc(-c4cnn(C)c4)c(N[C@H]4CCC[C@@H](O)[C@H]4O)n3)c2)cn1 was tested on IRAK1 (Homo sapiens, UniProt P51617); the reported IC50 is < 100 nM

GET /values?item= CN(C)c1ccc2ncc(-c3cccc(N[C@H]4CNC[C@@H]4F)n3)n2n1 &system= IRAK1 (Homo sapiens, UniProt P51617) returns IC50: 6290 nM

Reading of IC50 for C=CC(=O)N1CC(c2nc(-c3ccc(NC(=O)c4cccc(-c5[nH]ncc5Cl)n4)c(F)c3)no2)CC(F)(F)C1 (stereo not shown) with IRAK1 (Homo sapiens, UniProt P51617): 9.93 nM

Observed IC50, IRAK1 (Homo sapiens, UniProt P51617), Cn1cc(-c2cccc(-c3ncc(-c4cnn(C)c4)c(NCC4CCOC4)n3)c2)cn1 (racemic) : 100 to 1000 nM

Bench note, IRAK1 (Homo sapiens, UniProt P51617): O=C1Nc2nc3cc(CN4CCOCC4)ccc3n2Cc2cccc(c2)-c2ccc(=O)n(n2)Cc2cccc1c2 , IC50 reads < 100 nM

# Cn1cc(-c2cccc(-c3ncc(-c4cnn(C)c4)c(NCC4(O)CCNCC4)n3)c2)cn1 with IRAK1 (Homo sapiens, UniProt P51617): IC50 is > 5000 nM

Test item COC(=O)[C@@H]1CCC[C@H](Nc2nc(-c3cccc(-c4cnn(C)c4)c3)ncc2-c2cnn(C)c2)C1 ; IRAK1 (Homo sapiens, UniProt P51617); reported IC50 was 100 to 1000 nM

# Cn1cc(-c2ccc3ncc(-c4cccc(NC5CNCC5(F)F)n4)n3n2)cn1 (stereo not shown) with IRAK1 (Homo sapiens, UniProt P51617): IC50 is 497 nM

Record COc1cc2ncc(-c3cccc(N[C@H]4CNCC[C@@H]4F)n3)n2nc1-c1cnn(C(F)F)c1 has IRAK1 (Homo sapiens, UniProt P51617) IC50 equal to 1140 nM

Field IC50 (system: IRAK1 (Homo sapiens, UniProt P51617)) for entry COc1cc2ncc(-c3cccc(N[C@H]4CNC[C@@H]4F)n3)n2nc1-c1cn[nH]c1 = 75 nM

Summary: COc1ccc2nc(-c3cc(-c4ccsc4)cnc3N)[nH]c2c1 , IRAK1 (Homo sapiens, UniProt P51617), IC50 = 100 to 10000 nM

For the compound O=C1Nc2nc3ccccc3n2Cc2ccc(O)c(c2)-c2ccc(=O)n(n2)Cc2cccc1c2 , the measured IC50 on IRAK1 (Homo sapiens, UniProt P51617) was < 100 nM

Tested on IRAK1 (Homo sapiens, UniProt P51617), the item c1cc(NC2CCC3(CNC3)C2)nc(-c2cnc3ccc(-c4cnn5ccccc45)nn23)c1 (stereo not shown) showed IC50 equal to 269 nM

Entry C=CC(=O)N1CCC[C@H](C(=O)Nc2ccc(-c3nnc(-c4cccc(-c5ccn[nH]5)n4)[nH]3)nc2)C1 , IRAK1 (Homo sapiens, UniProt P51617) data, IC50 value: 3.95 nM

IRAK1 (Homo sapiens, UniProt P51617) data for Cn1cc(-c2cccc(-c3ncc(-c4cnn(C)c4)c(N[C@H]4CC[C@H](N)CC4)n3)c2)cn1 ; its IC50: 100 to 1000 nM

Reported IC50 (IRAK1 (Homo sapiens, UniProt P51617)) for entry F[C@H]1CNC[C@@H]1Nc1cccc(-c2cnc3ccc(-c4cnn5ccccc45)nn23)n1 is 81 nM

Tested on IRAK1 (Homo sapiens, UniProt P51617), the item COc1ccc2nc(-c3cc(-c4cnn(C)c4)cnc3N)[nH]c2c1 showed IC50 equal to 100 to 10000 nM

Here Cn1cc(-c2cccc(-c3ncc(-c4ccn(C)n4)c(NCCCO)n3)c2)cn1 was tested on IRAK1 (Homo sapiens, UniProt P51617), and its IC50 came to 1000 to 5000 nM

So the reported IC50 for Cn1cc(-c2cccc(-c3ncc(-c4cnn(C)c4)c(NCCCS(C)(=O)=O)n3)c2)cn1 , on IRAK1 (Homo sapiens, UniProt P51617), turned out to be < 100 nM
